Ref: the supplement of paper PMC10065799

phosphorylation enrichment values, listed per item
tested on: AncSZ; test: phosphorylation enrichment, bacterial display (enrichment ratio); higher = better substrate or ligand; peptides without Tyr show the background;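 note: 11-residue human phosphosite peptides and single-mutation variants displayed on the E. coli surface, counted by deep sequencing, each peptide's frequency after selection divided by its frequency in the unselected input library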;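 note: frequency after pTyr selection over input frequency; kinase dosed for 20-30% of maximal phosphorylation in three min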
Please respond with just the number, no unit label.

Here are 8 sequences together with their reported answers.
Noted for GLRYGYGVLGG [KRTAP20-2_Y15] : its phosphorylation enrichment reads 0.596

Noted for AARVSYRLASG [DCHS1_Y1582] : its phosphorylation enrichment reads 0.554

Noted for GFSDPYVKAFL [SYT3_Y470_S474F] : its phosphorylation enrichment reads 0.693

Noted for ADARMYGVLPR [PLP1_Y207_W212R] : its phosphorylation enrichment reads 0.598

Noted for CRPPFYHRNCM [HGD_Y334_F329C_YF] : its phosphorylation enrichment reads 0.913

Noted for TTASRYLKVSD [MYOM2_Y871_N869S] : its phosphorylation enrichment reads 0.489

Noted for HAEERYGKELV [PSTPIP1_Y53_Q48H] : its phosphorylation enrichment reads 1.26

Noted for GESQGYDIMEP [MSH2_Y863] : its phosphorylation enrichment reads 1.14

New cases:
Noted for ALHRPYGCDVE [ABL2_Y80] : its phosphorylation enrichment reads 0.871

Noted for RVQQIYSDSDL [MIB1_Y376] : its phosphorylation enrichment reads 1.32

Noted for VGGRIYIDDAL [PKLR_Y218_G222A] : its phosphorylation enrichment reads 0.86

Noted for LFHENYNAGTF [CFI_Y421_I416L_YF] : its phosphorylation enrichment reads 0.928

====

target: MERTK (UniProt Q12866); test: phosphorylation enrichment, bacterial display (enrichment ratio); higher = better substrate or ligand; peptides without Tyr show the background
Sequence (Q12866 whole entry, looked up): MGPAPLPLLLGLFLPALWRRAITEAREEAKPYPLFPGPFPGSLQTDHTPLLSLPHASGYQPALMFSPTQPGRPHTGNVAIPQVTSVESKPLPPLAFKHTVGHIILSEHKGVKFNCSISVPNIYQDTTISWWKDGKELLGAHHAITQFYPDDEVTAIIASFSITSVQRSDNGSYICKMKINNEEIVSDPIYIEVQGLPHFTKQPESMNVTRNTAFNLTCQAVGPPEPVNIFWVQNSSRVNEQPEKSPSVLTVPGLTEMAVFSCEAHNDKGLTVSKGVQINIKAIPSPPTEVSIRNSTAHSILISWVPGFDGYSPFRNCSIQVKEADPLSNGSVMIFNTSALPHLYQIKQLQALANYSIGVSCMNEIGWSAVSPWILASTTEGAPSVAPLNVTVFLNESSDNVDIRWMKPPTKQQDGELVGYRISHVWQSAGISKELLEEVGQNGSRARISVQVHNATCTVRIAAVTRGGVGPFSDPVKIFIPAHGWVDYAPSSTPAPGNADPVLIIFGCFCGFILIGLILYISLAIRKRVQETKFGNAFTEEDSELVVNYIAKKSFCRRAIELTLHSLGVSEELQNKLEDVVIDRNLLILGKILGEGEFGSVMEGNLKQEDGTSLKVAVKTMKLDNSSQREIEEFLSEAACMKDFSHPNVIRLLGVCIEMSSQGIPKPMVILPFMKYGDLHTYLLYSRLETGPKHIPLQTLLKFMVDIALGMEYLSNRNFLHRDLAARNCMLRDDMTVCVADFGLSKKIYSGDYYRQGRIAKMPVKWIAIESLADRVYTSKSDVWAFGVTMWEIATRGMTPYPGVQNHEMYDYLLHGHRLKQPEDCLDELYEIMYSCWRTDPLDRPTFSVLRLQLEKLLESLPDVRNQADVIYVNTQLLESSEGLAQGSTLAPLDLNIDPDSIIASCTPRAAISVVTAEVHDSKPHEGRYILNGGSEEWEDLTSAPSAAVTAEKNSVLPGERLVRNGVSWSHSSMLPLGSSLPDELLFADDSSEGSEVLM
phosphorylation enrichment values, listed per item
Please respond with just the number, no unit label.

Here are 6 sequences together with their reported answers.
Noted for MFDKEYFSVHN [MET_Y1234_YF] : its phosphorylation enrichment reads 0.393

Noted for DAVKHYMQFRK [CNGA2_Y395] : its phosphorylation enrichment reads 0.397

Noted for RLLRGHDQFAF [HLA-B_Y137_YF] : its phosphorylation enrichment reads 0.34

Noted for QGIFGYHHFMQ [UFSP2_Y287_YF] : its phosphorylation enrichment reads 0.549

Noted for NIISFYLSRDP [CTSD_Y232_F229I] : its phosphorylation enrichment reads 0.36

Noted for CTLLPYYSARV [DGKE_Y269] : its phosphorylation enrichment reads 0.508

New cases:
Noted for HPAGNYSLSSV [ARFGAP3_Y473_Q468H] : its phosphorylation enrichment reads 0.625

Noted for RSRRSYSCQVM [IGLL1_Y192] : its phosphorylation enrichment reads 0.9

Noted for AARVSYRLASG [DCHS1_Y1582] : its phosphorylation enrichment reads 0.422

Noted for TNFSLYLRSLE [MTM1_Y71_R69S_YF] : its phosphorylation enrichment reads 0.42

Noted for LNARHYGGLTG [PGAM2_Y92_E89A] : its phosphorylation enrichment reads 0.44

Noted for NQELIYEGQRL [TBK1_Y354_R357Q] : its phosphorylation enrichment reads 1.52

Noted for HISGVYKLPPD [ANGPTL7_Y145_R140H] : its phosphorylation enrichment reads 0.725

====

test system: Fer (mouse); assay: phosphorylation enrichment, bacterial display (enrichment ratio); higher = better substrate or ligand; peptides without Tyr show the background
EXPERIMENTAL_READOUT: phosphorylation enrichment
Please respond with just the number, no unit label.

Here are 8 sequences together with their reported answers.
The sequence IIRQLYLKWHP [SACS_Y4333_R4331Q] on Fer (mouse): phosphorylation enrichment was 0.4

The sequence CASQLCPRHKH [DCTN4_Y263_Y263C] on Fer (mouse): phosphorylation enrichment was 0.367

The sequence QWQQLYDTLNA [EIF3M_Y351] on Fer (mouse): phosphorylation enrichment was 4.62

The sequence FCRHNYGVGES [HLA-DRB1_Y112_V115G_YF] on Fer (mouse): phosphorylation enrichment was 0.396

The sequence HHIDYYKETTN [FGFR1_Y654_K656E] on Fer (mouse): phosphorylation enrichment was 0.893

The sequence KFVVVYFREID [IL17RB_Y447_YF] on Fer (mouse): phosphorylation enrichment was 0.446

The sequence RNYGTYTAGLS [RHBDD1_Y264_D262G] on Fer (mouse): phosphorylation enrichment was 0.519

The sequence GGYNNYGYGND [HNRNPH3_Y159] on Fer (mouse): phosphorylation enrichment was 0.672

Alright, here's another sequence for you.
The sequence EGNEQYEGYCV [GRIA3_Y451_R450Q] on Fer (mouse): phosphorylation enrichment was 1.11
